The reader will find reported inhibition at 0.5 µM values listed item by item below.
Biological target: c-Met kinase (Homo sapiens)
Construct: recombinant N-terminal 6×His-tagged c-Met kinase domain construct expressed from baculovirus; 6xHis (N); made in house
Sequence (P08581 1078-1345 limits assumed): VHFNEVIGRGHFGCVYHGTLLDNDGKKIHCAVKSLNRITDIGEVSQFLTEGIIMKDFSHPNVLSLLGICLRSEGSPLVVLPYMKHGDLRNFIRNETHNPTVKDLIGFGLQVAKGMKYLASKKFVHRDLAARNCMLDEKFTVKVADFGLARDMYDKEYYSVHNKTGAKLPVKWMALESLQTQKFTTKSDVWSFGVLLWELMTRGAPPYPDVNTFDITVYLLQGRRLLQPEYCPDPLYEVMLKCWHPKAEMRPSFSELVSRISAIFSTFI
Assay: c-Met kinase assay (33P incorporation into Poly(Glu-Tyr))
Type: biochemical
Conditions: 500 nM test compound
Just the number please, in %, no unit attached.

Use these answered entries as a reference point.
[[record]]
molecule = "CCOC(=O)CCc1c(/C=C2\\C(=O)Nc3ccc(NS(=O)(=O)CC)cc32)[nH]c2c1C(=O)CCC2 [DCB-70118]"
measured_number = 50.9

[[record]]
molecule = "CCOC(=O)CCc1c(/C=C2\\C(=O)Nc3ccccc32)[nH]c2c1C(=O)CCC2 [DCB-70049]"
measured_number = 26

[[record]]
molecule = "CCOC(=O)CCc1c(/C=C2\\C(=O)Nc3ccc(NC(=O)Nc4ccc(Cl)cc4Cl)cc32)[nH]c2c1C(=O)CCC2 [DCB-70184]"
measured_number = 8.7

[[record]]
molecule = "CCOC(=O)CCc1c(/C=C2\\C(=O)Nc3ccc(S(=O)(=O)N4CCc5ccccc54)cc32)[nH]c2c1C(=O)CC(C)(C)C2 [DCB-70160]"
measured_number = 59.1


Name the reported inhibition at 0.5 µM value associated with the molecule COc1ccc(C(=O)Nc2ccc3c(c2)/C(=C/c2[nH]c4c(c2CCC(=O)O)C(=O)CCC4)C(=O)N3)cc1 [DCB-70143]
-8.2

Also O=C(O)CCc1c(/C=C2\C(=O)Nc3ccc(S(=O)(=O)N4CCCCC4)cc32)[nH]c2c1C(=O)CCC2 [DCB-70114] ?
3.5

Try this molecule next: CCOC(=O)CCc1c(/C=C2\C(=O)Nc3ccc(OC)cc32)[nH]c2c1C(=O)CCC2 [DCB-70166]
21.6

* * *

# Lookup of reported inhibition at 0.1 µM keyed by entry
Biological target: Flt3 kinase (Homo sapiens)
Construct: recombinant N-terminal 6×His-tagged Flt3 kinase domain construct expressed from baculovirus; 6xHis (N); made in house
Sequence (P36888 610-943 limits assumed): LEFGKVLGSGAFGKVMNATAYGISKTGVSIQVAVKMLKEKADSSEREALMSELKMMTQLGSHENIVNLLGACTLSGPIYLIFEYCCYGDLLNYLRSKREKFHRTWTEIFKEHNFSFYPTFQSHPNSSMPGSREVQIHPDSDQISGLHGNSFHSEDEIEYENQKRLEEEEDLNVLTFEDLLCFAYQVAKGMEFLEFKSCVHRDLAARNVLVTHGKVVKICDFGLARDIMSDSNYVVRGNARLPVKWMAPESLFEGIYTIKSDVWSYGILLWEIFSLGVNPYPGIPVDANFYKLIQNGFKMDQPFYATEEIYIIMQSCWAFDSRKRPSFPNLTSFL
Test: Flt3 kinase assay (33P incorporation into Poly(Glu-Tyr))
Format: biochemical
Conditions: 100 nM test compound; read-out: Inhibition at 100 nM (%) Flt-3
Only the number, expressed in %, is required.

[[record]]
smiles_record = "CCOC(=O)CCc1c(/C=C2\\C(=O)Nc3cc(-c4cc(F)cc(F)c4)ccc32)[nH]c2c1C(=O)CCC2"
test_system = "Flt3 kinase (Homo sapiens)"
readout_name = "inhibition at 0.1 µM"
result_units = "%"
measured_number = 12.5

[[record]]
smiles_record = "O=C(O)CCc1c(/C=C2\\C(=O)Nc3ccc(NC(=O)c4ccc([N+](=O)[O-])cc4)cc32)[nH]c2c1C(=O)CCC2"
test_system = "Flt3 kinase (Homo sapiens)"
readout_name = "inhibition at 0.1 µM"
result_units = "%"
measured_number = 11.8

[[record]]
smiles_record = "O=C(O)CCc1c(/C=C2\\C(=O)Nc3ccc(Br)cc32)[nH]c2c1C(=O)CCC2"
test_system = "Flt3 kinase (Homo sapiens)"
readout_name = "inhibition at 0.1 µM"
result_units = "%"
measured_number = 92.8


Give the measured inhibition at 0.1 µM of "CCOC(=O)CCc1c(/C=C2\C(=O)Nc3ccc(NC(=O)c4ccc(OC)cc4)cc32)[nH]c2c1C(=O)CCC2" .
10.7

And for "CCOC(=O)CCc1c(/C=C2\C(=O)Nc3ccc(NS(=O)(=O)c4ccccc4)cc32)[nH]c2c1C(=O)CCCC2" ?
59.9

And for "CCOC(=O)CCc1c(C=C2C(=S)Nc3cc(Br)ccc32)[nH]c2c1C(=O)CCC2" ?
18.2
